Values were extracted from paper PMC9849103.

ASSAY TARGET: WT RBD (SARS-CoV-2 Wuhan-Hu-1 spike receptor binding domain) (SARS-CoV-2 (Wuhan-Hu-1), UniProt P0DTC2)
ASSAY METHOD TEXT: BLI
SETUP CONDITIONS: both partners purified
PARAMETER: Kd (nM)
Only the number, expressed in nM, is required.

>>> experimental_result("C2593 (antibody, V domains shown, source: 293-6E cells, transfected, purified (Protein G Sepharose)) VH: QVQLVQSGAEVKKPGSSVKVSCKASGGTFNSYAITWVRQAPGQGLEWMGGIIFIFDTANYAQKFQGRVTITADESTSTVYMELSSLRSEDTAVYYCARPGAELRDHYYYYGMDVWGQGTTVTVSS VL: DIVMTQSPLSLPVTPGEPASISCRSTQSLLHSNGNNYLDWYLQKPGQSPQLLIYLASNRAPGVPDRFSGSGSGTDFTLRISRVEAEDVGVYYCMQALQTPPTFGQGTRLEIK")
1.37

Kindly review the next binder as well.
# get_value(readout='Kd', item= C2488 (antibody, V domains shown, source: 293-6E cells, transfected, purified (Protein G Sepharose)) VH: QVQLVESGGGVVQPGRSLRLSCAASGFTFSTHGMHWVRQAPGKGLEWMAVIYFDGSNKYYADSVKGRFAISRDNSKNTLFLQMNSLRADDTAVYHCATNSAGYGDSYETFDIWGQGTMVSVSS VL: EIVMTQSPATLSVSPGERATLSCRASHSVGTNLAWYQQKPGQAPRLLIYGAFTRAAGISARFSGSGSGTEFTLTISSLQSEDLAVYYCQQYENWPPYTFGQGTKLEIK )
8.95
